# Test system: Human immunodeficiency virus 1
# experiment-description: Antiviral activity against HIV1 harboring reverse transcriptase K103N mutant infected in human […] cells assessed as protection against virus-induced cytopathic effect measured on day 5 post infection by MTT assay
# Format: functional, cell-based
# condition-context: Human immunodeficiency virus 1, 120 h
parameter: pEC50
Scale: negative log10 of molar concentration, which is what pEC50 denotes.

What does the record list as pEC50 for Cc1cc(C)cc(S(=O)(=O)c2c(C(=O)NC(C)C(=O)NCCc3cccs3)[nH]c3ccc(Cl)cc23)c1 (racemic) ?
7.74

What does the record list as pEC50 for Cc1cc(C)cc(S(=O)(=O)c2c(C(=O)NC(C)C(=O)NCc3ccncn3)[nH]c3ccc(Cl)cc23)c1 (racemic) ?
9.22

What does the record list as pEC50 for `Cc1cc(C)cc(S(=O)(=O)c2c(C(=O)NCC(=O)NCc3ccco3)[nH]c3ccc(Cl)cc23)c1` ?
7.22

What does the record list as pEC50 for `Cc1cc(C)cc(S(=O)(=O)c2c(C(=O)N[C@H](C)c3ccccc3F)[nH]c3ccc(Cl)cc23)c1` ?
9.15

What does the record list as pEC50 for `Cc1cn([C@H]2C[C@H](N=[N+]=[N-])[C@@H](CO)O2)c(=O)[nH]c1=O` ?
7.80

What does the record list as pEC50 for Cc1cc(C)cc(S(=O)(=O)c2c(C(=O)NC(C)C(=O)NCc3ccccc3F)[nH]c3ccc(Cl)cc23)c1 (racemic) ?
7.59

What does the record list as pEC50 for `Cc1cc(C)cc(S(=O)(=O)c2c(C(=O)N[C@@H](C)C(=O)NCc3ccncc3)[nH]c3ccc(Cl)cc23)c1` ?
9.15

What does the record list as pEC50 for `Cc1cc(C)cc(S(=O)(=O)c2c(C(=O)NCC(=O)NCc3ccccc3F)[nH]c3ccc(Cl)cc23)c1` ?
5.88

====

# System: Human immunodeficiency virus 1
# experiment-description: Antiviral activity against HIV1 harboring reverse transcriptase K103N mutant infected in human […] cells assessed as protection against virus-induced cytopathic effect measured on day 5 post infection by MTT assay
# Format: functional, cell-based
# condition-context: Human immunodeficiency virus 1, 120 h
For each of the compounds below, state its EC50.
State the result as a value with its unit after it.

What does the record list as EC50 for O=C1Nc2ccc(Cl)cc2[C@@](C#CC2CC2)(C(F)(F)F)O1 [EFAVIRENZ] ?
130 nM

What does the record list as EC50 for `Cc1cc(C)cc(S(=O)(=O)c2c(C(=O)NCC(=O)NCc3ccncc3)[nH]c3ccc(Cl)cc23)c1` ?
190 nM

What does the record list as EC50 for Cc1cc(C)cc(S(=O)(=O)c2c(C(=O)NC(CF)c3ccccc3)[nH]c3ccc(Cl)cc23)c1 (racemic) ?
0.7 nM

What does the record list as EC50 for `Cc1cc(C)cc(S(=O)(=O)c2c(C(=O)NCC(=O)N[C@@H](C)c3ccncc3)[nH]c3ccc(Cl)cc23)c1` ?
438 nM

====

For each of the compounds below, state its IC50.
# system: Human immunodeficiency virus type 1 reverse transcriptase (Human immunodeficiency virus 1, UniProt Q72547, K103N)
# experiment-description: Inhibition of HIV1 reverse transcriptase p66 K103N mutant associated RNA dependent DNA polymerase activity expressed in Escherichia coli assessed as reduction in [3H]dTTP incorporation using poly(rA)/oligo(dT) as template/primer by scintillation counting analysis
Kindly provide the numeric value in nM only, without the unit symbol.

What does the record list as IC50 for `Cc1cc(C)cc(S(=O)(=O)c2c(C(=O)N[C@H](C)C(=O)NCc3ccncn3)[nH]c3ccc(Cl)cc23)c1` ?
19900

What does the record list as IC50 for `Cc1cc(C)cc(S(=O)(=O)c2c(C(=O)N[C@@H](C)C(=O)N[C@H](C)c3ccncc3)[nH]c3ccc(Cl)cc23)c1` ?
300

What does the record list as IC50 for `Cc1cc(C)cc(S(=O)(=O)c2c(C(=O)Nc3ccnc(C#N)c3)[nH]c3ccc(Cl)cc23)c1` ?
72

What does the record list as IC50 for `Cc1cc(C)cc(S(=O)(=O)c2c(C(=O)N[C@H](C)c3ccccc3F)[nH]c3ccc(Cl)cc23)c1` ?
228
